# PROCEDURE SUMMARY: Parathyroid hormone (PTH 1-34) oral/intracolonic delivery, serum PTH by radioimmunoassay
# STUDY CONDITIONS: rats, oral (PO); delivery agent compound dose 100 mg/kg, PTH dose 200 μg/kg, volume dose 1 ml/kg
So basically: Mean Peak Serum [PTH] (pg/mL) ± SD at 500 pg/mL or higher? That is Fulfilled. Lower than 500 pg/mL? That is Not fulfilled.

INSERT INTO measurements (compound, class_assignment) VALUES
  ('CNC(=O)c1ccccc1OCCCCCCCC(=O)O', 'Not fulfilled'),
  ('CC(=O)c1ccccc1OCCCCCCCC(=O)O', 'Not fulfilled'),
  ('NC(=O)c1ccccc1OCCCCCCCC(=O)O', 'Not fulfilled'),
  ('CC(C)NC(=O)c1ccccc1OCCCCCCCC(=O)O', 'Fulfilled');

Now look at this entry.
Task: Say whether CCNC(=O)c1ccccc1OCCCCCCCC(=O)O [Compound 33, 8-(2-(N-ethylbenzamide)oxy)octanoic acid] shows Mean Peak Serum [PTH] (pg/mL) ± SD of 500 pg/mL or more.
Output: Fulfilled

This collection of values is drawn from patent US8410309B2.
